- System: DU-145
- procedure summary: NCI tumour cell line growth inhibition, 48 h
Calls of active or inactive are those of the source. Cut-off read from the data, not from the text of the source: active = GI50 up to about 1.1 µM and inactive = higher.
Can you answer with just one of these options? class 1 = active, class 0 = inactive

QUERY: Recorded call for COc1cc([C@@H]2c3cc4c(cc3[C@@H](c3c(O)cc(O)c5c3O[C@H](c3ccc(O)c(O)c3)[C@H](OC(=O)c3cc(O)c(O)c(O)c3)C5)[C@H]3COC(=O)[C@H]23)OCO4)cc(OC)c1OC ?
RESULT: class 0

QUERY: Recorded call for Cc1cccc2c1Oc1ccccc1C2NC(=O)c1ccc([N+](=O)[O-])cc1 (centres undefined) ?
RESULT: class 0

QUERY: Recorded call for C=C1CCc2ccccc2C1=O ?
RESULT: class 0

QUERY: Recorded call for C[n+]1c(-c2ccccc2)cc2/c(=C\c3ccccc3)c3ccccc3n21 ?
RESULT: class 0

QUERY: Recorded call for CCOC(=O)/C(C(=O)NC(C)C)=C(/N)N1CCOCC1 ?
RESULT: class 0

QUERY: Recorded call for COC(=O)C(Cc1c[nH]c2ccccc12)NP(=O)(O)OCC1OC(n2cc(Br)c(=O)[nH]c2=O)CC1O (centres undefined) ?
RESULT: class 0

QUERY: Recorded call for Brc1cccc(Nc2nc(-c3cccs3)nc3ccc(Br)cc23)c1 ?
RESULT: class 0

QUERY: Recorded call for O=C(O)C12C3C4(C(=O)O)C1C1(C(=O)O)C2C3(C(=O)O)C41 (centres undefined) ?
RESULT: class 0

QUERY: Recorded call for CC(=O)OCC1OC(n2c(C#N)cc(=O)[nH]c2=O)CC1OC(C)=O (centres undefined) ?
RESULT: class 0

QUERY: Recorded call for CCOC(=O)/C=C/C1(CCOC(C)=O)CCCCC1 ?
RESULT: class 0

QUERY: Recorded call for S=C1C(CCCOCc2ccccc2)C2CCCC23CC2(CCN13)OCCS2 (centres undefined) ?
RESULT: class 0

QUERY: Recorded call for C=C1OC2OC(C)C(NC(=O)OCC(Cl)(Cl)Cl)C(OC(C)=O)C2O1 (centres undefined) ?
RESULT: class 0

QUERY: Recorded call for COc1ccc(CNC(=O)NCn2cc(-c3ccccc3)nn2)cc1 ?
RESULT: class 0

QUERY: Recorded call for CC(=O)OC1(C)C(=O)OC/C2=C/CN(C)CCC(OC(=O)C(O)(C(C)Cl)CC1C)C2=O.c1ccccc1 (centres undefined) ?
RESULT: class 0

QUERY: Recorded call for COC(=O)c1c(O)ccc2c1c1c(n2C)C(=O)c2ccccc2C1=O ?
RESULT: class 0

QUERY: Recorded call for COc1ccc(NC(S)=Nc2cccc(C)n2)cc1 ?
RESULT: class 0

QUERY: Recorded call for O=C(CCc1ccccc1)NCCc1ccc(O)c(O)c1 ?
RESULT: class 0

QUERY: Recorded call for N=C(CC/C(N)=N/O)NO ?
RESULT: class 0

QUERY: Recorded call for Nc1c(Cl)ncnc1N[C@@H]1C[C@H]1CO ?
RESULT: class 0

QUERY: Recorded call for Cc1nc(O)nc(N/N=C/c2ccc(Cl)c(Cl)c2)c1C(=O)Nc1ccc(Cl)c(Cl)c1 ?
RESULT: class 0

QUERY: Recorded call for N#Cc1c(NC(=S)NC(=O)c2ccccc2)nc2c(c1-c1ccccc1)CCC2 ?
RESULT: class 0

QUERY: Recorded call for CCOC(=O)CCC(NC(=O)Cc1ccc(Nc2nc3ccccc3nc2-c2ccccc2)cc1)C(=O)OCC (centres undefined) ?
RESULT: class 0

QUERY: Recorded call for O=C1C=C(O)C(=O)c2c(O)ccc(O)c21 ?
RESULT: class 0

QUERY: Recorded call for SC[C@@H]1COC[C@H](CS)S1 ?
RESULT: class 0

QUERY: Recorded call for COc1cc([C@@H]2c3cc4c(cc3[C@@H](/N=C/c3ccc(C(=O)O[C@@H](C(=O)O[C@H]5C[C@@]6(O)[C@@H](OC(=O)c7ccccc7)[C@@H]7[C@]8(OC(C)=O)CO[C@@H]8C[C@H](O)[C@@]7(C)C(=O)[C@H](OC(C)=O)C(=C5C)C6(C)C)[C@@H](NC(=O)c5ccccc5)c5ccccc5)cc3)[C@H]3COC(=O)[C@H]23)OCO4)cc(OC)c1O ?
RESULT: class 1

QUERY: Recorded call for CCOC(NC(=O)CC)(C(F)(F)F)C(F)(F)F ?
RESULT: class 0

QUERY: Recorded call for CC(=O)c1sc2[n+](c1C)C(=O)/C(=C\c1ccccc1Cl)S2 ?
RESULT: class 0

QUERY: Recorded call for Cc1ccc(SC(=O)N2C(=S)N=C(NC3CCCCC3)C23CCCCC3)cc1 ?
RESULT: class 0

QUERY: Recorded call for Clc1cc2ccccc2c2ccccc12 ?
RESULT: class 0

---

- Test system: SK-MEL-28
- procedure summary: NCI tumour cell line growth inhibition, 48 h
Calls of active or inactive are those of the source. Rule as the data show it: active = GI50 up to about 1.1 µM and inactive = higher.
Assign GI50 to each entry below.

QUERY: What does the record list as GI50 for CC(C)C[C@H](NC(=O)[C@H](Cc1ccccc1)NC(=O)CCc1ccccc1)B(O)O ?
RESULT: < 0.01 µM (active)

QUERY: What does the record list as GI50 for O=C1CC2(CCC3=C(O2)c2ccccc2NC(=O)C3)C(=O)c2ccccc2N1 (stereo not given) ?
RESULT: > 100 µM (inactive)

QUERY: What does the record list as GI50 for CCCCCC(O)C1C(=O)OC(C)C(O)/C=C/C=C/C=C/C=C\C=C(\C)C(O)CC(O)CC(O)CC(O)CC(O)CC(O)CC1O (stereo not given) ?
RESULT: > 50 µM (inactive)

QUERY: What does the record list as GI50 for CCCc1ccc(NCc2cc(OC)c(OC)c(OC)c2)cc1 ?
RESULT: 25.1 µM (inactive)

QUERY: What does the record list as GI50 for C/C(=C\CO)CC[C@@H]1[C@@]2(C)CCCC(C)(C)[C@@H]2CC[C@@]1(C)O ?
RESULT: 22.3 µM (inactive)

---

Assign GI50 to each entry below.
- Test system: TK-10
- procedure summary: NCI tumour cell line growth inhibition, 48 h
Active and inactive are the calls of the source. No stated cut-off is given here; in the data, active = GI50 up to about 1.1 µM and inactive = higher.

QUERY: What does the record list as GI50 for CC1(C)C2CCC13CS(=O)(=O)N1O[C@]13C(=O)O2 (some centres undefined) ?
RESULT: > 100 µM (inactive)

QUERY: What does the record list as GI50 for CC1(c2nc3ccccc3[nH]2)CCC(C(=O)O)C(C)(C)O1 (centres undefined) ?
RESULT: > 100 µM (inactive)

QUERY: What does the record list as GI50 for COCCN(C(C)=O)C1CCC2(SCCS2)c2[nH]c3ccccc3c21 (centres undefined) ?
RESULT: > 100 µM (inactive)

QUERY: What does the record list as GI50 for CC(O)C1(CNc2cc(Cl)nc(N)n2)CCCCC1 (centres undefined) ?
RESULT: > 100 µM (inactive)

QUERY: What does the record list as GI50 for COC(=O)c1c(O)ccc2c1c1c(n2C)C(=O)c2ccccc2C1=O ?
RESULT: 26.7 µM (inactive)

QUERY: What does the record list as GI50 for C[n+]1c(-c2ccccc2)cc2/c(=C\c3ccccc3)c3ccccc3n21 ?
RESULT: 2.72 µM (inactive)

QUERY: What does the record list as GI50 for NC(=O)c1sc2nc3ccccc3n2c1N ?
RESULT: 42.7 µM (inactive)

QUERY: What does the record list as GI50 for c1cc(CSP234N5CCN2CCN3CCN4CC5)ccc1CSP123N4CCN1CCN2CCN3CC4 ?
RESULT: > 100 µM (inactive)

QUERY: What does the record list as GI50 for [N-]=[N+]=Nc1ccc2c(c1)Sc1ccccc1N2CCCCN1CCN(Cc2ccc(C(=O)c3ccccc3)cc2)CC1 ?
RESULT: > 39.6 µM (inactive)

---

- Test system: CAKI-1
- procedure summary: NCI tumour cell line growth inhibition, 48 h
Active and inactive are the calls of the source. No stated cut-off is given here; in the data, active = GI50 up to about 1.1 µM and inactive = higher.
Can you answer with just one of these options? active, inactive

QUERY: Recorded call for COc1ccc2nc3ccc(OC)cc3c(SCc3ccccc3)c2c1 ?
RESULT: inactive

QUERY: Recorded call for COc1cc(S(=O)(=O)Nc2ccc(-c3csc(N4C(=O)CSC4c4ccccc4)n3)cc2)ccc1Cl (stereo not drawn) ?
RESULT: inactive

QUERY: Recorded call for O=C1/C(=C2/CCCN2)C(c2ccc[nH]2)=NN1c1ccccc1 ?
RESULT: inactive

QUERY: Recorded call for CCC(C(=O)C(=O)C(CC)P1(=O)OC(C)(C)CN1C(C)(C)C)P1(=O)OC(C)(C)CN1C(C)(C)C (stereo not drawn) ?
RESULT: inactive

QUERY: Recorded call for CC1=C/C(=N\O)C(C(O)(C(F)(F)F)C(F)(F)F)C(C)(C)C1 (stereo not drawn) ?
RESULT: inactive

QUERY: Recorded call for COc1ccc2nc3cc(Cl)ccc3c(NC(C)CCCN(CCCl)CCCl)c2c1 (stereo not drawn) ?
RESULT: active

QUERY: Recorded call for OCc1cc2c(ccc3sc4ccc5sc6ccc7ncccc7c6c5c4c32)s1 ?
RESULT: inactive

QUERY: Recorded call for CCCNC1=C(C)C(=O)C2=C(C1=O)[C@H](COC(N)=O)[C@]1(OC)[C@@H]3N[C@@H]3CN21 ?
RESULT: inactive

QUERY: Recorded call for CN(C)CCCNc1ccc2ncn3c4ccc(O)cc4c(=O)c1c23 ?
RESULT: active

QUERY: Recorded call for NC(=O)c1ncn2c1NCC1OC2C(O)C1O (stereo not drawn) ?
RESULT: inactive

QUERY: Recorded call for Cc1ccc(SC(=O)N2C(=S)N=C(NC3CCCCC3)C23CCCCC3)cc1 ?
RESULT: inactive

QUERY: Recorded call for C[C@]12CCC(=O)C(OC(=O)c3ccc([N+](=O)[O-])cc3)=C1CCC2=O ?
RESULT: inactive

QUERY: Recorded call for c1ccc2c(c1)ccc1ncccc12 ?
RESULT: inactive

QUERY: Recorded call for CC1(C)CC(/C=C2/OC(=O)c3ccccc32)=C(C(N)=O)C(=O)O1 ?
RESULT: inactive

QUERY: Recorded call for Cc1cccc(-c2cc(O)c3cc(C)cnc3n2)c1 ?
RESULT: active

QUERY: Recorded call for Cc1cn2c(/C=C3/C(=O)Nc4cccc(Cl)c43)c(Cl)nc2s1 ?
RESULT: inactive

QUERY: Recorded call for NC1=Nc2cc(Cl)ccc2Sc2nc3ccccc3n21 ?
RESULT: inactive

QUERY: Recorded call for CO/C(=N\N=C(/C)C(F)(F)F)c1ccncc1 ?
RESULT: inactive

QUERY: Recorded call for COc1ccc(C(=O)C(C(=O)C(=O)Nc2nc3ccc(OC)cc3s2)c2ccc(OC)cc2)cc1 (stereo not drawn) ?
RESULT: inactive

QUERY: Recorded call for O=C(CSc1ncnc2[nH]cnc12)c1ccccc1 ?
RESULT: inactive

QUERY: Recorded call for C#CCOC(=O)C(N)CSSCC(N)C(=O)O (stereo not drawn) ?
RESULT: inactive

QUERY: Recorded call for CCOC(=O)Cc1nn2c(=O)cc(C)nc2s1 ?
RESULT: inactive

QUERY: Recorded call for CCC(c1c[nH]c2ccc(Br)cc12)c1c[nH]c2ccc(Br)cc12 ?
RESULT: inactive

QUERY: Recorded call for CCn1c(SCc2nnc(Nc3ccccc3)s2)nc2ccccc2c1=O ?
RESULT: inactive

QUERY: Recorded call for Cc1[nH]c2ccccc2c1-c1cc(-c2cc(-c3c(C)[nH]c4ccccc34)on2)no1 ?
RESULT: inactive

QUERY: Recorded call for CC(N)Cc1ccc(C(=O)Cl)cc1 (stereo not drawn) ?
RESULT: inactive

QUERY: Recorded call for COC(=O)[C@@H]1[C@H](O)CCC2=C(CC(=O)c3ccoc3)[C@H](C)CC[C@]21C ?
RESULT: inactive

QUERY: Recorded call for C/C(=C\CO)CC[C@@H]1[C@@]2(C)CCCC(C)(C)[C@@H]2CC[C@@]1(C)O ?
RESULT: inactive

QUERY: Recorded call for O=C1OC(C2Cc3ccc4ccccc4c3C2=O)c2ccccc21 (stereo not drawn) ?
RESULT: inactive

QUERY: Recorded call for CN1C(=O)C(=Cc2ccc(Br)cc2)C(=O)N(C)C1=O ?
RESULT: inactive

QUERY: Recorded call for O=P1(c2ccccc2)C2=CCC=CC2C(c2ccccc2)N1Cc1ccccc1 (stereo not drawn) ?
RESULT: inactive

QUERY: Recorded call for COC1OC(CO)C(O)C(NC(=O)N(C)N=O)C1O (stereo not drawn) ?
RESULT: inactive

QUERY: Recorded call for CC1(C)CC(=O)c2c(nc3c(ccc4ccccc43)c2-c2ccc(NC(=O)CCCCCCCCC(=O)Nc3ccc(-c4c5c(nc6c4ccc4ccccc46)CC(C)(C)CC5=O)cc3)cc2)C1 ?
RESULT: inactive
